assay: chemical genetic growth profiling, strain panel (AID 1159580);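 also: tested at 20 µM; growth read once vehicle control cultures reached saturation at 30 °C; 1 = growth at the plate median or of vehicle wells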; details: S. cerevisiae deletion strains, growth OD, locus YDR159W, strain sac3
Among all 5,500 compounds or so, about 2,000 (36%) were called active. Roughly 18% stayed inconclusive and do not appear here. Rule as the data show it: active = normalized growth mostly below about 0.91 (no sharp cut-off); inconclusive = no clear call, values can overlap the other calls; inactive = mostly above about 0.92. The list shows a part of the results.
Log the outcome using a class from active, inactive

Assay outcome for COc1ccc(OC)c(C(O)C(C)N)c1 (stereo unspecified) : what was it?
inactive

Next entry: CN1CCc2cc3c(cc2[C@H]1C1OC(=O)c2c1ccc1c2OCO1)OCO3 (stereo partly specified)
inactive

Try this compound too: CC1=C(C(C)O)C2=NC1C=c1[nH]c(c(C)c1C(C)O)=Cc1[nH]c(c(CCC(=O)O)c1C)C=c1[nH]c(c(C)c1CCC(=O)O)=C2 (stereo unspecified)
inactive

Thanks! And "COc1cc(NS(=O)(=O)c2ccc(N)cc2)nc(OC)n1" ?
inactive

Try the compound "O=C(O)c1cc2ccccc2c(Cc2c(O)c(C(=O)O)cc3ccccc23)c1O"
inactive

----------
compounds and their reported normalized growth
assay: chemical genetic growth profiling, strain panel (AID 1159580);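 also: tested at 20 µM; growth read once vehicle control cultures reached saturation at 30 °C; 1 = growth at the plate median or of vehicle wells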; details: S. cerevisiae deletion strains, growth OD, locus YDR001C, strain nth1, stronger effect = lower value
About 2,000 (36%) of roughly 5,500 compounds were called active. Inconclusive results (about 18%) are left out. The list shows a part of the results.

These solved cases illustrate the format of a correct answer.
{"compound": "CN1CCC(=C2c3ccccc3CCc3sccc32)CC1", "measured": "0.96 (inactive)"}
{"compound": "COc1ccc2cc([C@H](C)CO)ccc2c1", "measured": "1.01 (inactive)"}
{"compound": "COc1cc(NC(C)CCCN)c2ncccc2c1 (centres undefined)", "measured": "1.01 (inactive)"}

Here's the next entry for you.
GET /values?readout=normalized growth&item= CC(C(=O)O)c1cccc(C(=O)c2ccccc2)c1 (centres undefined)
0.983 (inactive)

----------
assay: chemical genetic growth profiling, strain panel (AID 1159580);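 also: tested at 20 µM; growth read once vehicle control cultures reached saturation at 30 °C; 1 = growth at the plate median or of vehicle wells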; settings: S. cerevisiae deletion strains, growth OD, locus YDR335W, strain msn5
The campaign covered roughly 5,500 compounds. About 2,000 (36%) were called active. Inconclusive results (about 18%) are left out. Rule as the data show it: active = normalized growth mostly below about 0.91 (no sharp cut-off); inconclusive = no clear call, values can overlap the other calls; inactive = mostly above about 0.92. Some of the results follow.
Form entry, call: pick from active, inactive

{"molecule": "CC(=O)OCC(=O)[C@H]1CCC2C3CCC4=CC(=O)CC[C@]4(C)C3CC[C@@]21C (stereo partly specified)", "class label": "inactive"}
{"molecule": "CCC(=O)O[C@H]1CCC2C3CCC4=CC(=O)CC[C@]4(C)C3CC[C@@]21C (stereo partly specified)", "class label": "inactive"}

Hi team, can someone confirm the assay call for "S=c1nc[nH]c2nc[nH]c12" ?
inactive

----------
test: chemical genetic growth profiling, strain panel (AID 1159580);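 also: tested at 20 µM; growth read once vehicle control cultures reached saturation at 30 °C; 1 = growth at the plate median or of vehicle wells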; settings: S. cerevisiae deletion strains, growth OD, locus YCL029C, strain bik1, stronger effect = lower value
Hit rate of the full screen: of about 5,500 compounds, about 2,000 (36%) were called active. About 18% were inconclusive and are not listed. Some of the results follow.
assay readout: normalized growth

Guide cases for normalized growth, answers given:
{"compound": "CC(C(=O)O)c1ccc(-c2ccccc2)c(F)c1 (centres undefined)", "assay readout": "normalized growth", "measured": "0.944 (inactive)"}
{"compound": "CO[C@H]1[C@H](O)[C@H](O[C@H]2CC[C@]3(C)C4CC[C@]5(C)C(C6=CC(=O)OC6)CC[C@]5(O)C4CC[C@@H]3C2)O[C@@H](C)[C@@H]1O (some centres undefined)", "assay readout": "normalized growth", "measured": "1.01 (inactive)"}
{"compound": "C=C(C)C1CNC(C(=O)O)C1CC(=O)O (centres undefined)", "assay readout": "normalized growth", "measured": "1.03 (inactive)"}
{"compound": "CCN(CC)CCCC(C)Nc1ccnc2cc(Cl)ccc12 (centres undefined)", "assay readout": "normalized growth", "measured": "1.01 (inactive)"}
{"compound": "CCC(=O)O[C@H]1CCC2C3CCC4=CC(=O)CC[C@]4(C)C3CC[C@@]21C (some centres undefined)", "assay readout": "normalized growth", "measured": "0.857 (active)"}
{"compound": "CCN(CC)CCCC(C)Nc1c2ccc(Cl)cc2nc2ccc(OC)cc12 (centres undefined)", "assay readout": "normalized growth", "measured": "0.479 (active)"}
{"compound": "COc1cc2c(cc1OC)[C@@H]1C(=O)c3ccc(O)c(CC=C(C)C)c3O[C@@H]1CO2", "assay readout": "normalized growth", "measured": "0.984 (inactive)"}
{"compound": "O=C(O)C1(O)C[C@@H](O)C(O)[C@H](O)C1 (some centres undefined)", "assay readout": "normalized growth", "measured": "1.03 (inactive)"}

Can you share its normalized growth? I mean this compound: "CN1CCC(=C2c3ccccc3CC(=O)c3sccc32)CC1"
1.02 (inactive)

Do the same for "COC1=C(OC)C(=O)C(C/C=C(\C)CC/C=C(\C)CC/C=C(\C)CC/C=C(/C)CC/C=C(\C)CC/C=C(\C)CC/C=C(\C)CC/C=C(\C)CC/C=C(\C)CCC=C(C)C)=C(C)C1=O" please
0.969 (inactive)

Also "CCCCNc1cc(C(=O)O)cc(S(N)(=O)=O)c1Oc1ccccc1" , if possible.
0.981 (inactive)

Proceed to OCC(O)C(O)C(O)CO (centres undefined)
0.985 (inactive)

What do you get for CC(=O)NC1SCCC1=O (centres undefined) ?
1.02 (inactive)

Again, but for CC(=O)C1CCC2C3CC(=O)C4=CC(=O)CCC4(C)C3CCC12C (centres undefined)
0.972 (inactive)
